All figures here come from patent US11319299B2.

# target entity: WDR5 (Homo sapiens (Human), UniProt P61964)
# assay details: Surface Plasmon Resonance (SPR) assay, KD and residence time
# Type: binding
# condition summary: surface plasmon resonance (SPR); read-out: WDR5 binding affinity (KD)
# Protocol: (i) Surface Plasmon Resonance (SPR) Assay The lifetime of a drug on its target is determined by two rate constants: the association rate constant (kon) and the dissociation rate constant (koff). […] Drug-target residence time is defined as the reciprocal of koff (τ=1/koff), making the residence time a parameter that is easily measured by routine in vitro assay methods.
Entries annotated with measured Kd

{"compound": "C[C@@H]1CN(c2cc(F)c(-c3ccc(C(=O)NC4CCCCC4(C)C)c(F)c3)cc2NC(=O)c2c[nH]c(=O)cc2C(F)(F)F)C[C@H](C)N1C (stereo partly drawn)", "Kd, nM": 4.85}
{"compound": "C[C@@H]1CN(c2cc(F)c(C3=CCCN(c4ncc(C#N)s4)CC3)cc2NC(=O)c2c[nH]c(=O)cc2C(F)F)C[C@H](C)N1C", "Kd, nM": 7.61}
{"compound": "C[C@@H]1CN(c2cc(F)c(-c3cnc(N4CCOC[C@H]4C)nc3)cc2NC(=O)c2cn(C)c(=O)cc2C(F)F)CCN1C (stereo in doubt)", "Kd, nM": 1.53}
{"compound": "C[C@H]1CN(c2cc(F)c(-c3cnc(N4CCOC[C@@H]4C)nc3)cc2NC(=O)c2cn(C)c(=O)cc2C(F)(F)F)CCN1C (racemic)", "Kd, nM": 0.977}
{"compound": "C[C@@H]1CN(c2cc(F)c(-c3csc(C(=O)N(C)CC4CC4)n3)cc2NC(=O)c2cn(C)c(=O)cc2C(F)(F)F)C[C@H](C)N1C", "Kd, nM": 5.03}
{"compound": "C[C@@H]1CN(c2cc(F)c(C3=CCCN(C(=O)OC4(C)CCC4)CC3)cc2NC(=O)c2c[nH]c(=O)cc2C(F)F)C[C@H](C)N1C", "Kd, nM": 3.11}
